Cited source for all entries: patent US12441768B2

Quick reference for viability among some compounds
settings: % Viability non-Wnt responsive cells; also: test concentration or dose not given here
Where a SMILES comes first, the peptide text is derived from it.

compound	viability, %
CC[C@H](C)[C@H](NC(=O)[C@H](CC(C)C)NC(=O)[C@H](Cc1ccccc1)NC(=O)[C@H](Cc1c[nH]c2ccccc12)NC(=O)[C@@H](N)CCSC)C(=O)N[C@@H](CO)C(=O)N[C@@H](Cc1ccccc1)C(=O)N[C@@H](Cc1c[nH]c2ccccc12)C(=O)N[C@@H](C)C(=O)O [compound 162] (H-MWFLISFWA-OH)	104
CSCC[C@H](NC(=O)[C@H](CCCNC(=N)N)NC(=O)[C@H](CO)NC(=O)[C@@H](N)CCSC)C(=O)N[C@@H](Cc1c[nH]c2ccccc12)C(=O)N[C@@H](Cc1ccccc1)C(=O)N[C@@H](CC(C)C)C(=O)N[C@H](C(=O)N[C@@H](CO)C(=O)N[C@@H](Cc1ccccc1)C(=O)N[C@@H](Cc1c[nH]c2ccccc12)C(=O)NCC(=O)O)C(C)C [compound 56] (H-MSRMWFLVSFWG-OH)	100
CC[C@H](C)[C@H](NC(=O)[C@H](CC(C)C)NC(=O)[C@@H](NC(=O)[C@H](Cc1c[nH]c2ccccc12)NC(=O)[C@H](CCSC)NC(=O)C(C)(C)C)[C@@H](C)CC)C(=O)N[C@@H](CO)C(=O)N[C@@H](Cc1ccccc1)C(=O)N[C@@H](Cc1c[nH]c2ccccc12)C(=O)NCC(=O)O [compound 225] (HELM PEPTIDE1{[CC(C)(C)C(=O)[*:2]].M.W.I.L.I.S.F.W.G}$$$$V2.0)	101
